biological target: UniProtKB P42338; assay: PI3Kβ enzymatic inhibitory activity IC50 assay; type: biochemical; conditions: selectivity ratio
Sequence (P42338 whole entry, species assumed): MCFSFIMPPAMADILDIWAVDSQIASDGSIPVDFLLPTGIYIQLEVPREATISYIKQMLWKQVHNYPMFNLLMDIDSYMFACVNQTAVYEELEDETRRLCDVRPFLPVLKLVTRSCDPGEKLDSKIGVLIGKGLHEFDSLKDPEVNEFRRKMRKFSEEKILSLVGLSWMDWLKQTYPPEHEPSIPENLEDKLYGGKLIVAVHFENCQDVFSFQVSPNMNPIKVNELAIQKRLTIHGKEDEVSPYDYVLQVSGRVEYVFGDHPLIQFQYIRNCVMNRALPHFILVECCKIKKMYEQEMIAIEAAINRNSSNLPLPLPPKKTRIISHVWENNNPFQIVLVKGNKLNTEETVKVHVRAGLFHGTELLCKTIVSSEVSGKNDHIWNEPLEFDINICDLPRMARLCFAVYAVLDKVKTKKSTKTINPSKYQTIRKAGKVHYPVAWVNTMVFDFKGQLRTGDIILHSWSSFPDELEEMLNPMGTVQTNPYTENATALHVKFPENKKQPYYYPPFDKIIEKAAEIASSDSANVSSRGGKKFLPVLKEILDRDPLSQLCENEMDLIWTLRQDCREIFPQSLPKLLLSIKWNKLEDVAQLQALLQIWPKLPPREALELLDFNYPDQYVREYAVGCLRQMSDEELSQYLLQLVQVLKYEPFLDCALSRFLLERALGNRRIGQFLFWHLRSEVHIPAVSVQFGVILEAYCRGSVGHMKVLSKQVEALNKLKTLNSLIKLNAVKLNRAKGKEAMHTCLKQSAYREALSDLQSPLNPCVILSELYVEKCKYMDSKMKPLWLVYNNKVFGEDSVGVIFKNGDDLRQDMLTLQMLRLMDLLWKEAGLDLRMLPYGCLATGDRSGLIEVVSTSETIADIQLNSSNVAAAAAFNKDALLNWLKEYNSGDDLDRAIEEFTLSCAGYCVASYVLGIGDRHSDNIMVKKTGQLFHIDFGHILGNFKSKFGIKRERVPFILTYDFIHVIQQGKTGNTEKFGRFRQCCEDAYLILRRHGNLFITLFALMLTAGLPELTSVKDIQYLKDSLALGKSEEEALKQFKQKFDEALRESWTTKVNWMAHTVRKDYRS
Sequence (P27986 whole entry partner, species assumed): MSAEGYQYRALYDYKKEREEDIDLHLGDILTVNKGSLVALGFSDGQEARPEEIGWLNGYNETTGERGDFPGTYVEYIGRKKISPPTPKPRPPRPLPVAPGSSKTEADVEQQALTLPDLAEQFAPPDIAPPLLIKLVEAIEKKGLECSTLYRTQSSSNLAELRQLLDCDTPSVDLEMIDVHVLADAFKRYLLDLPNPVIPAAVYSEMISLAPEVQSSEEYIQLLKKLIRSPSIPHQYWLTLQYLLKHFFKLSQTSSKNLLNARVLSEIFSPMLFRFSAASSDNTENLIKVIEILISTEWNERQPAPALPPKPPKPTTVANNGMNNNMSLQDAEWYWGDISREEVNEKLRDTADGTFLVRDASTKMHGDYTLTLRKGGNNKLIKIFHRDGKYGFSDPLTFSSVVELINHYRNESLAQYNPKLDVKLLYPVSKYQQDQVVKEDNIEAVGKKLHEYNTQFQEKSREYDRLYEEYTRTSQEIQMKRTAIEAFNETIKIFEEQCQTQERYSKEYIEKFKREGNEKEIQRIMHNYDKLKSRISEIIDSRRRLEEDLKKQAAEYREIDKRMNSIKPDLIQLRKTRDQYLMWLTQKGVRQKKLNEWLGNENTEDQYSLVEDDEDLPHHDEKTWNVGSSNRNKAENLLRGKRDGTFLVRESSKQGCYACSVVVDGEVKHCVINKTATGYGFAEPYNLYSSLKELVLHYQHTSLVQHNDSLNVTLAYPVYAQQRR
TEST READOUT: β/δ (ratio of IC50 values against PI3Kβ to PI3Kδ)

COMPOUND: COc1ncc(-c2nc(N3CCOCC3)nc3c(OC4CCC(N5CCCCC5)CC4)cc(F)cc23)cc1NS(C)(=O)=O (stereo not shown) [Compound 35]
SYSTEM TESTED: UniProtKB P42338
REPORTED: 322
//
COMPOUND: COc1ncc(-c2nc(N3CCOCC3)nc3c(CN4CCC(N5CCCCC5)CC4)cc(F)cc23)cc1NS(C)(=O)=O [Compound 7]
SYSTEM TESTED: UniProtKB P42338
REPORTED: 166
//
COMPOUND: COc1ncc(-c2nc(N3CCOCC3)nc3c(OC4CCC(N5CCCCC5)CC4)cc(F)cc23)cc1NS(C)(=O)=O (stereo not shown) [Compound 36]
SYSTEM TESTED: UniProtKB P42338
REPORTED: 366
//
COMPOUND: COc1ncc(-c2nc(N3CCOCC3)nc3c(OC4CC(C(C)(C)O)C4)cc(F)cc23)cc1NS(C)(=O)=O (stereo not shown) [Compound 37]
SYSTEM TESTED: UniProtKB P42338
REPORTED: >85
//
COMPOUND: COc1ncc(-c2nc(N3CCOCC3)nc3c(CN4CCC(C(C)(C)O)CC4)cc(F)cc23)cc1NS(C)(=O)=O [Compound 10]
SYSTEM TESTED: UniProtKB P42338
REPORTED: 31
//
COMPOUND: COc1ncc(-c2nc(N3CCOCC3)c3sc(CN4CCC(N(C)C(C)C)CC4)c(C)c3n2)cc1NS(C)(=O)=O [Compound 16]
SYSTEM TESTED: UniProtKB P42338
REPORTED: 341
//
COMPOUND: COc1ncc(-c2nc(N3CCOCC3)c3cc(CN4CCC(N5CCCCC5)CC4)ccc3n2)cc1NS(C)(=O)=O [Compound 15]
SYSTEM TESTED: UniProtKB P42338
REPORTED: >29
